Where these numbers come from: patent US20230263822A1

- protocolDescription: Hematology assays in cynomolgus monkeys (Example 45)
- Type: in vivo
- runParameters: Day 64; escalating dose regimen
propertyName: MCH
Units required after the number.

Guide cases for MCH, answers given:
- substance: "ISIS 416850: MOE gapmer, nucleobases 1275 to 1318 of SEQ ID NO: 1 (Table 8) (antisense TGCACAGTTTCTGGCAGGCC; MOE gapmer, wing and gap sizes not given here)"
  MCH: "22 pg"
- substance: "ISIS 417002: MOE gapmer, nucleobases 1275 to 1318 of SEQ ID NO: 1 (Table 8) (antisense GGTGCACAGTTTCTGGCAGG; MOE gapmer, wing and gap sizes not given here)"
  MCH: "22 pg"
- substance: "ISIS 416864: MOE gapmer, nucleobases 1275 to 1318 of SEQ ID NO: 1 (Table 8) (antisense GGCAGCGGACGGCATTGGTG; MOE gapmer, wing and gap sizes not given here)"
  MCH: "23 pg"
- substance: "ISIS 416858: MOE gapmer, nucleobases 1275 to 1318 of SEQ ID NO: 1 (Table 8) (antisense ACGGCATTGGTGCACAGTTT; MOE gapmer, wing and gap sizes not given here)"
  MCH: "22 pg"

Next substance, please.
Consider ISIS 416838: MOE gapmer, nucleobases 1018 to 1042 of SEQ ID NO: 1 (Table 6) (antisense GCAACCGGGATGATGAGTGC; MOE gapmer, wing and gap sizes not given here) . Its measured MCH is 23 pg

====

Below is a list of entries, each paired with its recorded bleeding time value.
- protocolDescription: Bleeding assay, Surgicutt Jr. device (Example 45)
- Format: in vivo, cynomolgus monkeys
- Set-up: unit not given here
- runParameters: day 15; escalating dose regimen
Field format: numeric only.

- substance: "ISIS 417002: MOE gapmer, nucleobases 1275 to 1318 of SEQ ID NO: 1 (Table 8) (antisense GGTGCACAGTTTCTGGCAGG; MOE gapmer, wing and gap sizes not given here)"
  bleeding time: 174

Turning now to a further record.
ISIS 416850: MOE gapmer, nucleobases 1275 to 1318 of SEQ ID NO: 1 (Table 8) (antisense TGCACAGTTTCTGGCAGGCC; MOE gapmer, wing and gap sizes not given here) yielded bleeding time of 165

====

- Tested on: human Factor 11 mRNA
- protocolDescription: Dose-dependent inhibition of human Factor 11 in HepG2 cells, electroporation 123.46-10,000 nM (Example 31)
- Type: cell-based
- runParameters: electroporation, 370.37 nM, approx. 16 hours, relative to untreated control cells
Strand notation (5' to 3'): a small letter for the sugar, then the base; units joined by * are phosphorothioate-linked, units joined directly phosphodiester-linked; [ ] holds rarer units or linkages, { } end groups; capitals alone tell only the bases. e = 2'-O-(2-methoxyethyl) (MOE); [5mC] = 5-methylcytosine; d = 2'-deoxy (DNA)
Class rule met: Percent inhibition of Factor 11 mRNA at 370.37 nM at least 20%. Class rule not met: Percent inhibition of Factor 11 mRNA at 370.37 nM below 20%.

// known answers, use as guide
- substance: "416856 (antisense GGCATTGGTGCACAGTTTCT; 5-10-5 gapmer, further chemistry not given here) [compound 416856]"
  subjectOfTest: "human Factor 11 mRNA"
  assignedClass: "rule met"
- substance: "445505 (antisense e[5mC]*eG*eG*e[5mC]*eA*eT*dT*dG*dG*dT*dG*d[5mC]*dA*d[5mC]*eA*eG*eT*eT*eT*e[5mC]) [compound 445505]"
  subjectOfTest: "human Factor 11 mRNA"
  assignedClass: "rule met"
- substance: "416858 (antisense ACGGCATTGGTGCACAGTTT; 5-10-5 gapmer, further chemistry not given here) [compound 416858]"
  subjectOfTest: "human Factor 11 mRNA"
  assignedClass: "rule met"

hey, is Percent inhibition of Factor 11 mRNA at 370.37 nM for this one >= 20%? 416850 (antisense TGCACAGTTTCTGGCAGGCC; 5-10-5 gapmer, further chemistry not given here) [compound 416850] rule not met

Would you say 445532 (antisense e[5mC]*eG*eG*e[5mC]*eA*dT*dT*dG*dG*dT*dG*d[5mC]*dA*e[5mC]*eA*eG*eT*eT) [compound 445532] shows Percent inhibition of Factor 11 mRNA at 370.37 nM at minimum 20%? rule not met

Is Percent inhibition of Factor 11 mRNA at 370.37 nM at least 20%? Consider 416861 (antisense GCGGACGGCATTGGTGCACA; 5-10-5 gapmer, further chemistry not given here) [compound 416861] rule not met
